- measurement protocol: CCK-8 cytotoxicity assay in HepG2-HBV1.3 (HepG2) cells
- Format: cell-based
- measurement context: human
test readout: CC50 at 6 days (µM)
One number for each entry, in µM.

## Input Reported CC50 at 6 days, compound Cc1cc2c(cc1S(=O)(=O)N1CCCC(C(=O)Nc3ccc(F)c(Cl)c3)C1)OC(C)C(=O)N2 (centres unmarked) : ____
## Output 20.6

###

- Tested on: HBV
- measurement protocol: Secreted HBV DNA in HepAD38 culture supernatant (RT-qPCR)
- Format: cell-based
- measurement context: Hepatitis B virus, 144 h; HepAD38 cells, 6 days; read-out: EC50 (secreted HBV DNA)
Record form. Attribute: pEC50. Fill in for each entry.
One number for each entry, as −log10 of the molar value.

Answered cases to consult:
CC1(C(=O)NCc2ccc(F)cc2)CCCN(C(=O)Nc2ccc(F)c(Cl)c2)C1 (stereo not shown) ... 5.95
CCOC(=O)c1c(C)[nH]c(C)c1S(=O)(=O)N1CCCC(C(=O)Nc2ccc(F)c(Cl)c2)C1 (stereo not shown) ... 6.46

Hi! Can you tell me pEC50 for each of these compounds?
1. O=C(Nc1ccc(F)c(Cl)c1)C1CCCN(S(=O)(=O)c2c[nH]c(C(=O)N3CCCC3)c2)C1 (stereo not shown)
2. Cc1cc2c(cc1S(=O)(=O)N1CCCC(C(=O)Nc3ccc(F)c(Cl)c3)C1)OCC(=O)N2 (stereo not shown)
3. Cc1cccc(NC(=O)c2ccc3nnc(SCC(=O)Nc4ccc(F)c(F)c4)n3c2)c1
4. CC(=O)N1c2ccc(S(=O)(=O)N3CCCC(C(=O)Nc4ccc(F)c(Cl)c4)C3)cc2CC1C (stereo not shown)
5. CC1Oc2ccc(S(=O)(=O)N3CCCC(C(=O)Nc4ccc(F)c(Cl)c4)C3)cc2NC1=O (stereo not shown)

## Output
1: 6.41; 2: 5.89; 3: 5.89; 4: 6.59; 5: 6.39
